B1: ZNF232 (parent)
chain: GKAYGWCSELIRHRRVHARKEPSH

variants of: B1; experiment: protein stability index of a GFP-peptide fusion (GPS, HEK-293T) (PSI 1-6); higher = more stable; settings: c terminus: a fixed tail appended;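 further: lentivirally expressed fusions sorted by FACS into six bins by GFP to DsRed ratio, PSI derived from sequencing read proportions per bin multiplied by bin number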
Where protein stability index equals or exceeds 3, the correct label is T; where it does not, the label is F.

**Q:** Hello, I need to know if P22Y has measured protein stability index not below 3. Thanks!
**A:** T

**Q:** # repeat for A18L
**A:** F

**Q:** # repeat for A3N
**A:** T

**Q:** # repeat for R19T
**A:** F

**Q:** # repeat for E9N
**A:** F

**Q:** # repeat for S8F
**A:** F

**Q:** # repeat for R12A
**A:** F

**Q:** # repeat for R14C
**A:** F

**Q:** # repeat for R12N
**A:** T

**Q:** # repeat for Y4A
**A:** T

**Q:** # repeat for S8G
**A:** F

**Q:** # repeat for S8K
**A:** F

**Q:** # repeat for H24F
**A:** F

**Q:** # repeat for W6F
**A:** T

**Q:** # repeat for A3H
**A:** F

**Q:** # repeat for H24W
**A:** F

**Q:** # repeat for A3M
**A:** F

**Q:** # repeat for K2V
**A:** F

**Q:** # repeat for Y4S
**A:** T

**Q:** # repeat for P22V
**A:** F

**Q:** # repeat for H17A
**A:** F

**Q:** # repeat for H24I
**A:** F

**Q:** # repeat for K2D
**A:** T

**Q:** # repeat for R12Y
**A:** F

**Q:** # repeat for H13P
**A:** F

**Q:** # repeat for A18T
**A:** T

**Q:** # repeat for H24L
**A:** F

**Q:** # repeat for K2Q
**A:** T

**Q:** # repeat for H17D
**A:** T

**Q:** # repeat for V16C
**A:** F

**Q:** # repeat for H13V
**A:** F

**Q:** # repeat for C7A
**A:** T

**Q:** # repeat for C7S
**A:** T

**Q:** # repeat for W6D
**A:** T

Provenance of the data: the supplement of paper PMC10567573
